Each entry below lists one item and its recorded pEC50 value.
Molecular target: rat alpha-synuclein (rat, UniProt P37377 1-140)
Experiment: direct ELISA on coated antigen;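 also: plates coated with recombinant human, mouse or rat alpha-synuclein, purified antibody titrated 10 µg/mL down to 0.6 ng/mL for 1 h, bound antibody detected by anti-rat HRP with TMB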
Lab note: report pEC50 as minus log10 of the concentration in molar units, number only.

For orientation, consider the following solved cases.
binder="1H5 (antibody, rat IgG2b, V domains shown, also called clone 1H5) VH: AVQLVESGGGLVQPKESLKISCAASGFTFSDAAMYWVRQAPGKGLELVARIRTKPNNYATYYADSVKGRFTISRDDSKSMVYLQMGNLKTEDTAMYYCSADFHYFDYWGQGVMVTVSS VL: DIQMTQSPSVLSASVGDRVTLSCKAGQNINKNLDWYQQKLGEAPKLLISFTNNLQTGVPSRFSGSGSGSDYTLTISSLQPEDVATYYCYQYNSGWTFGGGTKLELK" observed_result=8.53
binder="20H4 (antibody, rat IgG2b, V domains shown, also called clone 20H4; rat 20H4) VH: AVQLVESGGGLVQPKESLKISCAASGFTFSNAAMYWVRQAPGKGLELLARIRTKPNNYATYHADSVKGRFTISRDDSQSMVYLHMGNLKTEDTAMYYCTADMATGDYWGPGVMVTVSS VL: DIQMTQSPPVLSVSVGDRVTLSCKASQNINKNLDWYQQKHGEAPKPLIYSTNNLQTGVPSRFSGSGSGTDYTLTISSLQPEDVATYYCYQYKSAWTFGGGTKLELR" observed_result=8.82

Now consider a different binder.
Data request: Could you tell me which pEC50 is on file for 22D11 (antibody, rat IgG1, V domains shown, also called clone 22D11) VH: AVQFVESGGGLVRPKESLKISCTASGFTFTNAAIYWVRQAPGKGLECIARIRTKPNNYATYYADSVRGRFTISRDDSKPMVYLQMNELKTEDTAMYYCAADASRGDYWGQGVMVTVSS VL: DIQMTQSPSVLSASVGDRVTFSCKASQNINKNLDWYQQKLGEVPKVLIYFTNNLQTGIPSRFSGSGSGTDYTLTISSLQPEDVATYYCYQYTSGFTFGAGTKLELK ?
Data returned: 8.70
